Reference source for all entries: ChEMBL document CHEMBL1130176

Entries annotated with measured IC50
tested target: Phosphodiesterase 1 (Homo sapiens, UniProt P54750+Q01064+Q14123)
assay method text: Inhibitory activity against PDE1 from cerebral cortex
Format: tissue-based

Please review the following examples before continuing.
CCCN1C(=O)N2CCCN=C2c2[nH]cnc21
> 100 µM
CCCn1cnc2c1n(CCC)c(=O)n1ccnc21
40 µM
CCCn1cnc2c1c1nnnn1c(=O)n2CCC
> 100 µM
CCCn1cnc2c1c1nccn1c(=O)n2CCC
14 µM
CCCN1C(=O)N2CCCCN=C2c2ncn(CCC)c21
> 100 µM

Any idea what its IC50 is? The compound is CCCCOc1cc(CC2CNC(=O)N2)ccc1OC (centres undefined)
> 300 µM

Any idea what its IC50 is? The compound is `CCCN1C(=O)N2CCCN=C2c2c1ncn2CCC`
> 100 µM

Any idea what its IC50 is? The compound is `CCCn1c(=O)n2ccnc2c2[nH]cnc21`
> 100 µM

Any idea what its IC50 is? The compound is `Nc1cc(-c2ccncc2)c[nH]c1=O`
> 300 µM

====

tested target: Phosphodiesterase 4 (Homo sapiens, UniProt P27815+Q08499+Q07343+Q08493)
assay method text: Inhibitory activity against Phosphodiesterase 4 from cerebral cortex.
measurement type: IC50 (µM)
# output: bare number, implied unit µM

Please review the following examples before continuing.
CCCn1cnc2c1n(CCC)c(=O)n1ccnc21
1.4
CCCN1C(=O)N2CCN=C2c2ncn(CCC)c21
1.6

// switching to the query molecule
Any idea what its IC50 is? The molecule is `CCCN1C(=O)N2CCCCN=C2c2ncn(CCC)c21`
13
